- Assayed Target: T1, anti-DENV E protein antibody comprising a modified IgG heavy chain constant region (SEQ ID NO: 116)
- T1 construct: also called anti-DENY E protein antibody; Fc-Mutated Antibody
- T1 sequence (constant, as listed by the source limits assumed): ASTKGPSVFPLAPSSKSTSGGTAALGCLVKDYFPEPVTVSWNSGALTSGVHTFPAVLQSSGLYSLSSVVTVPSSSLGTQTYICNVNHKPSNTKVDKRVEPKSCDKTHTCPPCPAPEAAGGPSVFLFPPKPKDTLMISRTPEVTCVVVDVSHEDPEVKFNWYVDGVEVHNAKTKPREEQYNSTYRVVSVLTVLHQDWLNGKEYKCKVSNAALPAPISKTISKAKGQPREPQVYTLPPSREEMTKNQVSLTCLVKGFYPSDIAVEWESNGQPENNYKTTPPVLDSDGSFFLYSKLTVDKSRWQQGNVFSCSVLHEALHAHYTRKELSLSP
- Protocol Text: SPR (Biacore T200), 25 C, pH 7.4; SKA antibody captured by anti-rabbit IgG, anti-DENV E protein antibody injected 0-400 nM
Measured kon by item

[
  {
    "Binder": "SKA0171 (antibody, V domains shown, Recombinant rabbit monoclonal from B-cell cloning, expressed in FreeStyle 293-F cells; the first screen used B-cell culture supernatant; also called Anti-SG115 Antibody; rabbit Anti Fc-Mutation Antibody) VH: QSLEESGGGLVQPEGSLTLSCTASGFSFSSSYYMCWVRQAPGKGLEWIACIYGGNSVITYYANWAKGRFTISETSSTTVTLQMTSLTAADTATYFCAREVHYDYLYTTYGYANLWGPGTLVTVSS VL: AIKMTQTPASVSAVVGGTVTINCQASETIYSGLAWYQQKPGQPPKLLIYDTANLETGVSSRFKGSGSGTEYTLTISDLECDDAATYFCLYAYYSGGSADNAFGGGTEVVVKG",
    "kon [M⁻¹ s⁻¹]": "1.02e+06"
  },
  {
    "Binder": "SKA0027 (antibody, V domains shown, Recombinant rabbit monoclonal from B-cell cloning, expressed in FreeStyle 293-F cells; the first screen used B-cell culture supernatant; also called Anti-SG115 Antibody; rabbit Anti Fc-Mutation Antibody) VH: QEQLVESGGGLVQPEGSLTLTCTASGFSFSSSDYMCWVRQAPGKGLEWIGCIYTGSGSTYYASWAKGRFTISKTSSTTVTLQMTSLTAADTATFFCARRGDSYSNYSFKLWGPGTLVTVSS VL: AFELTQTPASVEAAVGGTVTIKCQASQNIYSNLAWYQQKPGQPPKLLIYTASSLASGVSSRFKGSGSGTEFTLTISDLECDDAATYYCQCTYINNGYGNTFGGGTEVVVKG",
    "kon [M⁻¹ s⁻¹]": 190000
  },
  {
    "Binder": "SKA0001 (antibody, V domains shown, Recombinant rabbit monoclonal from B-cell cloning, expressed in FreeStyle 293-F cells; the first screen used B-cell culture supernatant; also called Anti-SG115 Antibody; rabbit Anti Fc-Mutation Antibody) VH: QSVEESGGRLVTPGTPLTLTCTVSGFSLSYYAMNWVRQAPGKGLEWIGIIGISGGTYYASWAKGRFTISKSSSTTVDLKMTSPTTEDTATYFCARGGSAWGDLWGQGTLVTVSS VL: DIVMTQTPSSVSAAVGGTVTINCQASQSISRLLAWYQQKPGQPPKVLMHDASDLASGVPSRFKGSGSGTEYTLTISDLECADAATYYCQSYYWGSSGDIGYPFGGGTEVVVKG",
    "kon [M⁻¹ s⁻¹]": 44400
  },
  {
    "Binder": "SKA0141 (antibody, V domains shown, Recombinant rabbit monoclonal from B-cell cloning, expressed in FreeStyle 293-F cells; the first screen used B-cell culture supernatant; also called Anti-SG115 Antibody; rabbit Anti Fc-Mutation Antibody) VH: QSLEESGGDLVKPGASLTLTCTASGFSFSSSYYMCWVRQAPGKGLEWIACIYAGSSGSTYYASWAKGRFTISKTSSTTVTLQMTSLTAADTATYFCARDGDENMLVGGYFNLWGPGTLVTVSS VL: ALVMTQTPSSVSAAVGGTVTINCQASHNIYSNLAWYQQKPGQRPKLLIYGASNLESGVPSRFKGSGSGTEYTLTISDLECDDAATYYCQSAYYSSNAGYNAFGGGTEVVVKG",
    "kon [M⁻¹ s⁻¹]": 267000
  }
]
